- TESTED_SYSTEM: mGPDH (Rattus norvegicus, UniProt P35571)
- Construct: Activity of mGPDH in frozen-thawed skeletal muscle mitochondria was measured; from tissue; host or cells: skeletal muscle mitochondria
- Sequence (P35571 43-727): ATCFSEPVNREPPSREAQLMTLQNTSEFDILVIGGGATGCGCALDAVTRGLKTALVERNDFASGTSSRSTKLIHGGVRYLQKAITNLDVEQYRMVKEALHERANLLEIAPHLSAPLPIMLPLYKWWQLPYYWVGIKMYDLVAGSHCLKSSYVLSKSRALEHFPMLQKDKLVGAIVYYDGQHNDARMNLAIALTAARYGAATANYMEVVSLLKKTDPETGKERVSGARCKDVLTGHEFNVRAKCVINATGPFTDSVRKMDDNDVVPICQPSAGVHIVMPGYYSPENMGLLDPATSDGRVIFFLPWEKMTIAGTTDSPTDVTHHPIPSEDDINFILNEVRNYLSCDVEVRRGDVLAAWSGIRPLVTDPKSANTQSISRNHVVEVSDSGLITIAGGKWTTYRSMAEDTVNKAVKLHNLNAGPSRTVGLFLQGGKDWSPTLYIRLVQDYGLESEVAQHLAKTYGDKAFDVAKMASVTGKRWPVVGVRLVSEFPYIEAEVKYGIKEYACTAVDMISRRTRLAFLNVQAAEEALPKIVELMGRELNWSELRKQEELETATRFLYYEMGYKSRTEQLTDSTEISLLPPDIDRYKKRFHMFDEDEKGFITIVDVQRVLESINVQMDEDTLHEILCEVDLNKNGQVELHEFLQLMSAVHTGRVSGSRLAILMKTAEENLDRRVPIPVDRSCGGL
- ASSAY_COMMENT: Superoxide/H2O2 production by mGPDH in isolated skeletal muscle mitochondria (Amplex UltraRed)
- Format: biochemical
- CONDITION_PARAMETERS: Fig. 9B; read-out: mGPDH H2O2 Production IC50
OUTCOME_MEASURE: pIC50
Give bare numbers, as −log10 of the molar value.

O=C(O)CCC(=O)Nc1ccc(-c2nc3cc4ccccc4cc3[nH]2)cc1 :: 6.00

**Q:** Need pIC50, item "O=C(O)CCC(=O)Nc1ccc(-c2nc3ccccc3[nH]2)cc1"
**A:** 4.87
